Test: RPL19A-GFP modulators, yeast TOR pathway, confirmation, cell-based, S. cerevisiae, flow cytometry, cherry picks, mother/daughter gates (AID 2270)
Details: S. cerevisiae RPL19A-GFP strain, 3 h, at 10 µM, hits give low values, 100 = same GFP as DMSO wells
Reported GFP response vs DMSO values for a set of molecules
Quick note: give the figure in %, leave out the unit.

Cc1cc(C=C2C(=O)N(C)C(=S)N(C)C2=O)c(C)n1-c1ccncc1 92.8
O=C1NC(=S)N(c2ccccc2)C(=O)/C1=C/c1ccco1 98.8
O=c1[nH]c(=S)n(-c2ccccc2)c(O)c1/C=N/N1CCOCC1 102
CC[C@@H]1C(=O)OC[C@@H]1Cc1cncn1C 99.5
O=C1/C(=C\c2ccc(Cl)c(Cl)c2)N2CCC1CC2 102

Entry CCN1C(=O)NC(=O)/C(=C\c2cn(CC(=O)N3CCCC3)c3ccccc23)C1=O : reported GFP response vs DMSO = ?
97.3

Entry O=C(O)c1[nH]c(=O)[nH]c(=O)c1F : reported GFP response vs DMSO = ?
96.9

Entry O=C1NC(=O)N(CCc2ccc(F)cc2)C(=O)/C1=C/c1cccs1 : reported GFP response vs DMSO = ?
97

---

Target: Botulinum neurotoxin type A (Clostridium botulinum) (UniProt P0DPI0)
Sequence (P0DPI0 whole entry, looked up): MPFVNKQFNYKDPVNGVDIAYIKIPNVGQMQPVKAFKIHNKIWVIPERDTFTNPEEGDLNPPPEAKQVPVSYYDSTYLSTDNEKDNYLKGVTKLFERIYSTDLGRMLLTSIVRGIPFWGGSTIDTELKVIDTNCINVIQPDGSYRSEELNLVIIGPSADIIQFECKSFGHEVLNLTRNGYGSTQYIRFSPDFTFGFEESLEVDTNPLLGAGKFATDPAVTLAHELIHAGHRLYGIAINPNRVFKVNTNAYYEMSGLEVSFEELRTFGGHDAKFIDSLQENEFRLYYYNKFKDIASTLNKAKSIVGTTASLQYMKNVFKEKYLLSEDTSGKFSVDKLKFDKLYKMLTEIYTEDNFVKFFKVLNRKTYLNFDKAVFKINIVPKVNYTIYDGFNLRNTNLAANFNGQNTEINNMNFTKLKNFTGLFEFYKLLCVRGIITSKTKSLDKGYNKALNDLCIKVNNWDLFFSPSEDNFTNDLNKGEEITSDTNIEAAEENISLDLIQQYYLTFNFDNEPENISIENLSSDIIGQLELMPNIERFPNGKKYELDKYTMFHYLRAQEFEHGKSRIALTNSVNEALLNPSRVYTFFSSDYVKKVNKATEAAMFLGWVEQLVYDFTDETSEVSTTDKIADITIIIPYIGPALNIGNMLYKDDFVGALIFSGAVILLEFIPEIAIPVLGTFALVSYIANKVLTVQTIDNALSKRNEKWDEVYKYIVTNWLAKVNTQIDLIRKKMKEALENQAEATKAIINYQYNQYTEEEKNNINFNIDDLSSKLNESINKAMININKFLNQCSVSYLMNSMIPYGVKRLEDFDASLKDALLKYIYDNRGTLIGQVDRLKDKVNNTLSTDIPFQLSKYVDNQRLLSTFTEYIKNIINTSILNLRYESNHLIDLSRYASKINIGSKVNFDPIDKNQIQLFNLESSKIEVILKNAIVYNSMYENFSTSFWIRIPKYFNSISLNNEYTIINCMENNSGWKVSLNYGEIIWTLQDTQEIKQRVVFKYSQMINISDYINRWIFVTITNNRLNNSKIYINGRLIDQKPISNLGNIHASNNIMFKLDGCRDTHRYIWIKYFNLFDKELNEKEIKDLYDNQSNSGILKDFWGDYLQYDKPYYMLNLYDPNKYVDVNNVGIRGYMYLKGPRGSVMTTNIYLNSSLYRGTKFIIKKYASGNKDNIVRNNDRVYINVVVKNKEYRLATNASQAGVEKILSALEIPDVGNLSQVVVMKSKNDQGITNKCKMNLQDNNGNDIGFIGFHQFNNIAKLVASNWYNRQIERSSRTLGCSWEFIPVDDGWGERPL
Assay: BoNT/A light chain protease inhibitors, biochemical, multiplex microsphere flow cytometry, validation set (AID 588460)
Settings: at 10 µM, hits give high values
Peptide text beside a SMILES is read from it.
Reported inhibition values for a set of compounds
Quick note: give the figure in %, leave out the unit.

See these solved cases before continuing.
compound	inhibition, %
Cc1cc(O)c(C(=O)Cc2csc(C)n2)c(O)c1	-2.4
CCc1cc2c(=O)c(-c3nc(C)cs3)c(CCCC(=O)O)oc2cc1O	-1.9
CCOC(=O)C1C(=O)OC2(CCOC(C)(C)C2)C1C(=O)OCC (stereo not drawn)	-0.2
COc1ccc(C2CC(c3ccc([N+](=O)[O-])cc3)=NN2C(=O)c2ccccc2)cc1OC (stereo not drawn)	7.9
CC(C)C[C@H](NC(=O)[C@@H]1CCCN1C(=O)[C@@H](N)Cc1ccc(O)cc1)C(=O)NCC(N)=O (H-YPLG-NH2)	-0.2
Cc1cc2c(C(C)C)c(O)c(O)c(C=O)c2c(O)c1-c1c(C)cc2c(C(C)C)c(O)c(O)c(C=O)c2c1O	0.9
COc1ccc(N2C(=O)[C@@H]3Cc4ccccc4CN3C2=O)cc1	0.4
NS(=O)(=O)c1cc2c(cc1Cl)NC(C1C[C@H]3C=C[C@@H]1C3)NS2(=O)=O (stereo partly drawn)	1
COc1ccc(C(=O)/C=C2/c3ccccc3CC(C)(C)N2C)cc1	-1.8
O=C(O)c1cc2cc(F)ccc2[nH]1	2.4

Entry S=C(c1ccc2c(c1)OCO2)N1CCCCC1 : reported inhibition = ?
-1.6

Entry O=C1C(O)CC2c3ccccc3CC3(CCCC3)N12 (stereo not drawn) : reported inhibition = ?
-1.5

Entry Cc1cc(C(C)(C)C)cc(C)c1CC1=NCCN1 : reported inhibition = ?
1.2

Entry O=C(O)CCCCCCNC(=O)c1cncc(O)c1 : reported inhibition = ?
0.2

---

Biological target: Beta-2 adrenergic receptor (Homo sapiens)
Assay: beta2AR agonists driving receptor internalization, pilot screen, cell-based, FAP fluorogen, flow cytometry, validation set (AID 504459);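 further: agonist-driven loss of surface beta2AR via internalization measured by FAP dye flow cytometry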
Details: Am2.2-beta2AR cells, FAP surface receptor flow cytometry; at 10 µM; hits give high values
test.readout: response (%)
Quick note: give the figure in %, leave out the unit.

See these solved cases before continuing.
molecule	response [%]
CCN1CC2(COC(=O)c3ccccc3N)CCC(OC)C34C5CC6C(OC)CC(O)(C5C6OC)C(O)(C(OC)C23)C14 (stereo not given)	-0.45
c1ccc2c(c1)Nc1ccccc1S2	1.66
CC/C(=C\C=C\[C@@H]1C=C[C@@H]2CCC[C@H]2[C@@H]1C(=O)c1ccc[nH]1)[C@@H]1O[C@@H]([C@@H](C)C(=O)O)CC[C@@H]1C	9.7
[N-]=[N+]=CC(=O)OC[C@H](N)C(=O)O	-13
CC12CCC3C(CC=C4CC(O)CCC43C)C1C/C(=C\c1cccc(F)c1)C2=O (stereo not given)	-8.92
C[C@@]1(CO)[C@H](O)CC[C@@]2(C)[C@H]1CC[C@H]1C[C@@H]3C[C@@]12CC[C@]3(O)CO	0.18
CCN(CC)CCOC(=O)C(O)(c1ccccc1)c1ccccc1	10.4
C#C[C@]1(O)CC[C@H]2[C@@H]3CCC4=CC(=O)CC[C@]4(C)[C@H]3CC[C@@]21C	-8
CCCC(=O)OCC[N+](C)(C)C	9.88

Entry COc1ccc2c(c1)CC1(CN2C)C(=O)NC(=O)N(CCc2ccccc2)C1=O (stereo not given) : reported response = ?
-3.63
